Target: T1, human BDCA2 (full-length, cell surface) (human, UniProt Q8WTT0 1-213)
T1 construct: also called huBDCA2; surface human BDCA2
T1 sequence: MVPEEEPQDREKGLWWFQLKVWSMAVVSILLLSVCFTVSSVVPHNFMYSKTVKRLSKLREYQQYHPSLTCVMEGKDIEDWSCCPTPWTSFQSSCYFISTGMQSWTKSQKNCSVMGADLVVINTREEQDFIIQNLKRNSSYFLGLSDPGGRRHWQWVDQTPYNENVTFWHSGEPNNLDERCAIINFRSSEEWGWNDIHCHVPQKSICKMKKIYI
Assay: direct binding FACS, conditioned medium on CHO cells co-expressing BDCA2 and FcεRIγ
Measured parameter: binding result

hu24F4 H5/L2 (antibody, V domains shown, Humanized variant, human IgG1/kappa, conditioned medium of 293E cells; also called H5 series of hu24F4) VH: DVQLVQSGGGLVKPGGSLRLSCAASGFTFSTYTMSWVRQAPGKGLEWVATISPGDSFGYYYPDSVQGRFTISRDNAKNSLYLQMNRLRAEDTAVYYCTRDIYYNYGAWFAYWGRGTLVTVSS VL: DIQLTQSPSSLSVSVGDRATISCKASQSVDYDGDSYMNWYQQKPGKAPKLLIYAASTLESGVPSRFSGSGSGTDFTLTISSVQPEDFATYYCQQSNEDPRTFGQGTKVEIK: binds

Origin of the recorded values: patent US20180362652A1
